Entries with reported IC50 on VEGFR-2 (Homo sapiens, UniProt P35968)
Sequence (P35968 20-1356): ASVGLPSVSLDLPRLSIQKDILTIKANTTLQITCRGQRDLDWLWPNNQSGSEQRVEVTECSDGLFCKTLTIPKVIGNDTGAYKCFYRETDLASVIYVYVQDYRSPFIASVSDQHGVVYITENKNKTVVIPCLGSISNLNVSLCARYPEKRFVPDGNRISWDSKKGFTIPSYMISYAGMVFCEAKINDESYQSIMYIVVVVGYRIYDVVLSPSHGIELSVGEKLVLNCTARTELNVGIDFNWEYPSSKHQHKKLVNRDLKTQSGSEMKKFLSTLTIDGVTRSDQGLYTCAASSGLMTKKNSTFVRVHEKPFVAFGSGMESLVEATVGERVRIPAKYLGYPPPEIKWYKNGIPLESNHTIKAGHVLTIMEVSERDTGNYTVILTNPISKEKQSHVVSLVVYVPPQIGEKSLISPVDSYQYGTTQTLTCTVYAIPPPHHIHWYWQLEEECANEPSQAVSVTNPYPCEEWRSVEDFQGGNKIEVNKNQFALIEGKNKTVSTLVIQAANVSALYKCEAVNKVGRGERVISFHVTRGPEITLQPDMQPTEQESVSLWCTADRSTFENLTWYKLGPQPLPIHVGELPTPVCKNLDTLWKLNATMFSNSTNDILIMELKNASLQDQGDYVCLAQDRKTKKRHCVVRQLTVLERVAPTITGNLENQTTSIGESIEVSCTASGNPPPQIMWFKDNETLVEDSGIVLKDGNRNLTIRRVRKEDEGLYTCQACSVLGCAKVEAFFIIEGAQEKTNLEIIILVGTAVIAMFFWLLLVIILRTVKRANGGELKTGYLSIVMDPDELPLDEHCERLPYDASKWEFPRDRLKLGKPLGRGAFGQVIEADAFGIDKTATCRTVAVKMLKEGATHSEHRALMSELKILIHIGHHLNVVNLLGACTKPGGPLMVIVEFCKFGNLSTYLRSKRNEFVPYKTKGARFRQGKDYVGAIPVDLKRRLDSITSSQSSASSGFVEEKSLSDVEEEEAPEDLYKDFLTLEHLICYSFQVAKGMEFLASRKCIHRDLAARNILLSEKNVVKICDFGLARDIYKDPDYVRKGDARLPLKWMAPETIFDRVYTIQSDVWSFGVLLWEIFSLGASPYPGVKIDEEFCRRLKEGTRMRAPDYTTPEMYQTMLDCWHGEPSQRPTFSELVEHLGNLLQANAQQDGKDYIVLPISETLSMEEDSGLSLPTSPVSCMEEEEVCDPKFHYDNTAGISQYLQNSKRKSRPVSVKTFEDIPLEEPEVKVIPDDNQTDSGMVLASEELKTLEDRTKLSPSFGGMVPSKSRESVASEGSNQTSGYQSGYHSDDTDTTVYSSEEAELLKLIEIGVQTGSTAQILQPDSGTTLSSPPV
endpoint: IC50

compound | reported
O=C(CN1C(=O)SC(=C2C(=O)Nc3ccccc32)C1=O)Nc1cc(Cl)ccc1Cl [Compound 14b] | 85.8 nM
O=C(CN1C(=O)SC(=C2C(=O)Nc3ccccc32)C1=O)NCCc1ccccc1 [Compound 14c] | 81.5 nM
COc1ccc2[nH]c(=O)c(/C=C3\SC(=O)N(CC(=O)Nc4ccc(Cl)cc4)C3=O)cc2c1 [Compound 10a] | 65.2 nM
O=C(CN1C(=O)SC(=C2C(=O)Nc3ccccc32)C1=O)Nc1ccc(Cl)cc1 [Compound 14a] | 91.5 nM
COc1ccc2[nH]c(=O)c(/C=C3\SC(=O)N(CC(=O)Nc4cc(Cl)ccc4Cl)C3=O)cc2c1 [Compound 10b] | 165 nM

The values you see were collected from paper PMC9506633.
